- experimental-system: T1, phospho-MOB1(K104E/K105E), full length, recombinant (human, UniProt Q9H8S9 1-216, K104E | K105E, phosphorylated in vitro by MST2 (residues 2-308); the paper names Thr12 and Thr35 as the MST1/2 phosphorylation sites of MOB1)
- T1 sequence: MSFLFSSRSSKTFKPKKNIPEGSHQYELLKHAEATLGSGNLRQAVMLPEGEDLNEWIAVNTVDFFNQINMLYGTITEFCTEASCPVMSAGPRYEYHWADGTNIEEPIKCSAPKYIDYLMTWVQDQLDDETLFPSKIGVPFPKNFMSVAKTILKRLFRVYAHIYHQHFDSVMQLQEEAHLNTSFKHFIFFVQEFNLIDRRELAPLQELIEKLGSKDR
- test-protocol: ITC; phosphorylated MOB1
endpoint-name: Kd (nM)
Please state the figure in nM; there is no need to write the unit.

Some binders with recorded Kd:
binder: LATS1 (640-703, V647Y) (domain or fragment, human, UniProt O95835 640-703, looked up, human LATS1, residues 640-703 (NTR); also called LATS1(V647Y); source: E. coli BL21(DE3), purified (Ni-NTA)) KFFMEQHYENVLKSHQQRLHRKKQLENEMMRVGLSQDAQDQMRKMLCQKESNYIRLKRAKMDKS
endpoint-name: Kd
measured-value: 3830

binder: human NDR1 (residues 24-87), NTR (domain or fragment, UniProt Q15208 24-87, looked up, human NDR1, residues 24-87 (NTR); also called NTR of NDR1; source: E. coli BL21(DE3), purified (Ni-NTA)) KVTLENFYSNLIAQHEEREMRQKKLEKVMEEEGLKDEEKRLRRSAHARKETEFLRLKRTRLGLE
endpoint-name: Kd
measured-value: 124

binder: NDR2 (25-88, Y32V) (domain or fragment) KLTLENFVSNLILQHEERETRQKKLEVAMEEEGLADEEKKLRRSQHARKETEFLRLKRTRLGLD
endpoint-name: Kd
measured-value: 8700

binder: human NDR2 (residues 25-88), N-terminal regulatory domain (NTR) (domain or fragment, UniProt Q9Y2H1 25-88, looked up, human NDR2, residues 25-88 (NTR); also called NDR2 (25-88); NTR of NDR2; source: E. coli BL21(DE3), purified (Ni-NTA)) KLTLENFYSNLILQHEERETRQKKLEVAMEEEGLADEEKKLRRSQHARKETEFLRLKRTRLGLD
endpoint-name: Kd
measured-value: 532

Now let's try a different one.
Given the entry LATS2 (603-666, V610Y) (domain or fragment, human, UniProt Q9NRM7 603-666, looked up, human LATS2, residues 603-666 (NTR), codon-optimized synthetic gene; also called LATS2(V610Y); source: E. coli BL21(DE3), purified (Ni-NTA)) KFFMEQHYENVIKTYQQKVNRRLQLEQEMAKAGLCEAEQEQMRKILYQKESNYNRLKRAKMDKS , report its measured Kd.
1300
